- Target desc: T1, TNFR1 (Homo sapiens, UniProt P19438)
- T1 chain: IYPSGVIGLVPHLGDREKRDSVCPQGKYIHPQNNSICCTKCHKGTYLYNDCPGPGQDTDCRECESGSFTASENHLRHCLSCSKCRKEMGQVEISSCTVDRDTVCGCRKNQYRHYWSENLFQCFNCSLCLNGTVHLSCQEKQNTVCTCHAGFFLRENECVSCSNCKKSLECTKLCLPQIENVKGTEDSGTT
- Test protocol: yeast display SC50
Can you tell me apparent Kd (screen) for the items I'm about to list?
One number for each entry, in nM.

Known results for binders:
{"Binder": "E81Y (designed binder) SMEEEVEKAAKEYEKKKKEAIEKHLEKLKAKDKEAAERFLKELEEAAKEYAKDEAKTMSEEEAKRRAKKYKEKVLLSELSYEEQKEIKEAEEKLVRTILKYVEEAAK", "apparent Kd (screen), nM": 0.653}
{"Binder": "D53W (designed binder) SMEEEVEKAAKEYEKKKKEAIEKHLEKLKAKDKEAAERFLKELEEAAKEYAKWEAKTMSEEEAKRRAKKYKEKVLLSELSEEEQKEIKEAEEKLVRTILKYVEEAAK", "apparent Kd (screen), nM": 10.4}
{"Binder": "K16V (designed binder) SMEEEVEKAAKEYEKVKKEAIEKHLEKLKAKDKEAAERFLKELEEAAKEYAKDEAKTMSEEEAKRRAKKYKEKVLLSELSEEEQKEIKEAEEKLVRTILKYVEEAAK", "apparent Kd (screen), nM": 1.05}

Next up:
# input Please look up its apparent Kd (screen): E4H (designed binder) SMEHEVEKAAKEYEKKKKEAIEKHLEKLKAKDKEAAERFLKELEEAAKEYAKDEAKTMSEEEAKRRAKKYKEKVLLSELSEEEQKEIKEAEEKLVRTILKYVEEAAK
# output 1.4
